# System: M14
# test-description: NCI tumour cell line growth inhibition, 48 h
Active and inactive are the calls of the source. Cut-off read from the data, not from the text of the source: active = GI50 up to about 1.1 µM and inactive = higher.
Write down one outcome, taken from true (active), false (inactive)

compound="CCCC(=O)NC(Nc1ccc(S(=O)(=O)Nc2cc(C)on2)cc1)(C(=O)OCC)C(F)(F)F (stereo not drawn)" target_system=M14 class_assignment=false

Field: outcome | Entry: COc1ccc(CNc2cc(OC)c(OC)c(OC)c2)cc1 false

Fill in: this test's call for COc1ccc(NC(=O)c2cc(NC(=O)/C=C/c3ccccc3)c(OC)c(OC)c2)cc1 is ___ false

Write down the call the test reported for this compound. Item: CCOC(=O)C1(C)CCC(C(=O)OC)C1=O (stereo not drawn) false

Each compound tested received a call. Report the one for Cc1nn(-c2ccccc2)c(S)c1C(=O)c1ccccc1 . false

Check the results log: what was the call for CC(=O)Nc1ccc2c3c(cc(O)c2c1)N(C(=O)CCCCC(=O)N1CC(CCl)c2c1cc(O)c1cc(NC(C)=O)ccc21)CC3CCl (stereo not drawn) ? true

State the result this test recorded for N#CC1(C#N)C(c2ccccc2)C=CC(c2ccc([N+](=O)[O-])cc2)C1(C#N)C#N (stereo not drawn) . false

Can you look up the reported call for O=S(=O)(/N=C(\NO)Nc1ccc(Cl)cc1)c1cccc2nsnc12 for me? false

Assay result, entry O=C(CC1C(=O)Nc2ccccc2[S+]1[O-])Nc1cccc(Cl)c1 (stereo not drawn) — outcome? false

What did this assay record as the result for Cc1cc(N(CCOS(C)(=O)=O)CCOS(C)(=O)=O)ccc1/C=N/c1ccc(-c2csc(-c3ccccc3)n2)c(Cl)c1 ? false

What call does the record list for Cc1cc(C)c(C[C@H]2COC(=O)[C@]2(O)Cc2c(C)cc(C)cc2C)c(C)c1 ? false

Dear colleague, could you share the recorded outcome for O=c1oc2ccccc2c(-c2ccc(O)cc2)c1Oc1ccc(Cl)cc1 when you have a moment? false

Assay outcome for CC1=CC(C)C/C=C/C2C3OC3(C)C(C)C3C(Cc4c[nH]c5ccccc45)NC(=O)C23C(=O)C=CC(=O)C1O (stereo not drawn) : what was it? false

----------
# Test system: SNB-78
# test-description: NCI tumour cell line growth inhibition, 48 h
Active and inactive are the calls of the source. No stated cut-off is given here; in the data, active = GI50 up to about 1.1 µM and inactive = higher.
Choose the fitting class; nothing outside yes (active), no (inactive) is accepted.

Examples from the recorded data:
compound="COc1cc2c(cc1OC)C1(c3ccccc3)ON=C(c3ccccc3)N1CS2 (stereo unspecified)" class_assignment=no
compound="CCCCCCCCCC1CC(=O)Oc2cccc(O)c21 (stereo unspecified)" class_assignment=no
compound=COc1cc2c(c(OC)c1OC)-c1ccc(SC)c(=O)cc1[C@@H](NCc1cccc(C#N)c1)CC2 class_assignment=yes
compound="CCCCCCCCCC[S+]([O-])CC(CO)NC(=O)/C=C/c1c(C)nc(O)nc1O (stereo unspecified)" class_assignment=yes
compound=CSc1cc(=O)n2c3ccccc3c3ccnc1c32 class_assignment=no

Turning now to a further compound:
Just curious, what result did CCOC(=O)c1nc(-c2ccccc2)oc1OCC get here? no

----------
Listed next: entries and their corresponding GI50.
# Test system: CAKI-1
# test-description: NCI tumour cell line growth inhibition, 48 h
Calls of active or inactive are those of the source. No stated cut-off is given here; in the data, active = GI50 up to about 1.1 µM and inactive = higher.

compound="Cc1ccc2c(c1C)C(=O)C1(C2)Cc2ccc3c(c2C1=O)CCC3 (stereo unspecified)" value_reported="> 100 µM (inactive)"

What does the data say about its GI50? Entry: O=C1CS(=O)(=O)C(c2cccc(Oc3ccccc3)c2)N1c1cccc(Cl)c1 (stereo unspecified) 25.7 µM (inactive)

Which value of GI50 has been reported for O=C(O)Cc1ccc(Oc2nc3ccccc3nc2-c2ccccc2)cc1 in the records? 63.5 µM (inactive)

Would you kindly share the measured GI50 for S=C1CC(c2ccccc2)Sc2ccc(Cl)cc2N1 (stereo unspecified) ? 63.7 µM (inactive)

Value lookup for GI50; key = CC(=O)c1ccc(Oc2c3ccccc3nc3ccccc23)cc1 4.69 µM (inactive)

Data request, read-out GI50, for CCC1CC(C)=CCN1S(=O)(=O)c1ccc(C)cc1 (stereo unspecified) 6.9 µM (inactive)

Value lookup for GI50; key = N#C/C(=C\c1ccc[nH]1)C(=O)c1ccccc1 > 100 µM (inactive)

----------
# Tested on: SK-OV-3
# test-description: NCI tumour cell line growth inhibition, 48 h
Active and inactive are the calls of the source. Rule as the data show it: active = GI50 up to about 1.1 µM and inactive = higher.
observable: GI50

Guide cases for GI50, answers given:
molecule=COc1cc(NCc2ccc3nc(N)nc(N)c3c2C)cc(OC)c1OC observable=GI50 value_reported="2.84 µM (inactive)"
molecule=CC1=C(SC#N)S(=O)(=O)N(c2ccccc2)C(C)=C1SC#N observable=GI50 value_reported="38.2 µM (inactive)"
molecule=O=C(CCC(=O)Nc1ccc(Cl)c(Cl)c1)CC(=O)c1ccc(F)cc1 observable=GI50 value_reported="> 100 µM (inactive)"
molecule=O=N/N=c1\o[n-][n+](CCc2ccccc2)c1Cc1/c(=N/N=O)o[n-][n+]1CCc1ccccc1 observable=GI50 value_reported="34.4 µM (inactive)"
molecule=NCCOCCOCC(=O)O observable=GI50 value_reported="> 100 µM (inactive)"

Return reported GI50; argument: NC(Cc1ccccc1CP(=O)(O)O)C(=O)O (stereo unspecified) > 100 µM (inactive)

Query (molecule): CCCCOP1(=O)CC(C)=C(Cl)C(C)(OC)C1 (stereo unspecified) ; field requested: GI50 > 100 µM (inactive)

Recorded GI50 for CC1=CC(C)C/C=C/C2C3OC3(C)C(C)C3C(Cc4c[nH]c5ccccc45)NC(=O)C23C(=O)C=CC(=O)C1O (stereo unspecified) , please? 12.4 µM (inactive)

Looking for the measured GI50 of Nc1ccc(S(=O)(=O)Nc2nnc(S(N)(=O)=O)s2)cc1 , can you help? > 100 µM (inactive)

I would be grateful if you could share the reported GI50 for CCC1=NC(N/N=C/c2ccco2)=N/C1=C\c1ccccc1O . 47 µM (inactive)

# query: GI50 of entry C[C@@H](CCO)OC1OC(COC(=O)C(C)(C)C)C(OC(=O)C(C)(C)C)C(OC(=O)C(C)(C)C)C1OC(=O)C(C)(C)C (stereo partly specified) 58.7 µM (inactive)

Reported GI50, molecule Cc1ccc([N+](=O)[O-])cc1S(=O)(=O)Nc1ccc(C2=NOC(c3ccccc3O)C2)cc1 (stereo unspecified) : ____ 15.3 µM (inactive)

Dear colleague, I am looking for the recorded GI50 of the following molecule: COc1ccc(/C=C/C(=O)N[C@@H]2C(=O)N3[C@@H]2SC(C)(C)[C@@H]3C(=O)O)cc1OC > 100 µM (inactive)

Value lookup for GI50; key = C=C(C)[C@@H]1CCC2=C[C@@H](OC2=O)[C@@H](C(=C)C)C2=CC(C(=O)O)=C(C1)O2 > 100 µM (inactive)

----------
# Test system: DMS-114
# test-description: NCI tumour cell line growth inhibition, 48 h
The source made the active and inactive calls. No stated cut-off is given here; in the data, active = GI50 up to about 1.1 µM and inactive = higher.
Write down the outcome that applies. Available outcomes: active, inactive

Use these answered entries as a reference point.
compound="Cc1cc(O)nc(NNC(C#N)c2c(O)ccc3ccccc23)n1 (configuration not stated)" target_system=DMS-114 class_assignment=inactive
compound=COc1cc2c(c(OC)c1OC)-c1ccc(SC)c(=O)cc1[C@@H](NCc1cccc(C#N)c1)CC2 target_system=DMS-114 class_assignment=active

For Cc1cc(=O)oc2cc3c(cc12)Oc1ccccc1O3 , which call appears in the assay record? inactive

# lookup: test call for NN/C(Cc1ccccc1)=N/NC(N)=S inactive

Record lookup: outcome of this test for O=c1ccn(/C=C/C(O)C(O)CO)c(=O)[nH]1 (configuration not stated) ? inactive

----------
# Test system: MOLT-4
# test-description: NCI tumour cell line growth inhibition, 48 h
Active and inactive are the calls of the source. Cut-off read from the data, not from the text of the source: active = GI50 up to about 1.1 µM and inactive = higher.
observable: GI50

The following compounds have reported results that may help.
compound=CN(C)CCSc1cc(-c2ccccc2)c2ccccc2n1 value_reported="6.38 µM (inactive)"
compound=O=C1C(Cl)=C(Cl)C(=O)C2=C1C1c3ccccc3C2c2ccccc21 value_reported="> 100 µM (inactive)"
compound="CCOC(=O)[C@H]1Nc2ccc([N+](=O)[O-])cc2C2c3ccccc3CC21 (stereo partly specified)" value_reported="5.12 µM (inactive)"
compound=CN(C)CC/C=C1\c2ccccc2Sc2ccc(Cl)cc21 value_reported="11.5 µM (inactive)"
compound=C[C@H](NC1=C(Cl)C(=O)c2c(O)ccc(O)c2C1=O)C(=O)Nc1ccc([N+](=O)[O-])cc1 value_reported="10 µM (inactive)"

Could you now look at the following compound, please?
Tell me the measured GI50 of COc1cc(CC2c3cc(OC)c(OC)cc3CCN2C)c(C(=O)O)cc1OC (stereo unspecified) , please. > 100 µM (inactive)

----------
# Test system: NCI-H226
# test-description: NCI tumour cell line growth inhibition, 48 h
Activity calls are given as the source filed them. Cut-off read from the data, not from the text of the source: active = GI50 up to about 1.1 µM and inactive = higher.
Log the outcome using a class from Yes for active, No for inactive

Some entries whose results are on file:
compound="C/C(=C(/C)c1ccc(O)cc1)c1ccc(O)cc1 [DIMETHYLSTILBESTROL]" class_assignment=No
compound=Cc1ccc(/N=C2/C(c3ccccc3)=C(SC3=C(c4ccccc4)/C(=N/c4ccc(C)cc4)c4ccccc43)c3ccccc32)cc1 class_assignment=No
compound="CCCCCCCCCCCCCC(=O)OC(/C=C/C(C)C)C(O)C(O)C(OC)C(=O)NC1CCCCN(C)C1=O (stereo unspecified)" class_assignment=No

# fetch the recorded call for O=C(O)c1nc2ccc(C(F)(F)F)cc2nc1Nc1ccc(Cl)c(Cl)c1 here No

I would be grateful if you could indicate the recorded call for CCOP(=O)(OCC)C(C)(C)OC(=O)NC(F)(F)F . No

Tell me the recorded outcome of this test for Nc1nccc(NCC2(CO)CC(OCc3ccccc3)C2)n1 (stereo unspecified) . No

I would be grateful if you could indicate the recorded call for CS(=O)(=O)Nc1ccc2c(c1)N(S(C)(=O)=O)CC2CCl (stereo unspecified) . No

// return assay outcome for CC(C)(C)OC(=O)N[C@H]1CC(O)c2ccccc2N(CC(=O)O)C1=O (stereo partly specified) No

What is the recorded call for this compound in the test? [O-][S+](c1ccccc1)c1ccc(/N=N/O)nc1 (stereo unspecified) No

Recorded call for CCCCCCSCC/C(C)=N\OC ? No

For COc1ccc(/C=C\c2cc(OC)c(OC)c(OC)c2)cc1OC(=O)NCCN(C)C , which call appears in the assay record? Yes
